Where these numbers come from: patent US7138361B2

Below, each of the compounds is paired with its reported Plant response rating, Cupgrass, Woolly value.
- Test system: woolly cupgrass (Eriochloa villosa)
- test.protocol: Test C postemergence
- Format: in vivo
- test.context: Rate 62 g/ha, scale 0 to 100

compound: CCC(CC)c1ccn(C2OCN(c3cccc(OC(F)F)c3)C2=O)n1 (stereo not drawn)
target.system: woolly cupgrass (Eriochloa villosa)
Plant response rating, Cupgrass, Woolly: 10
//
compound: CCC(CC)c1ccn(C2OCN(c3cccc(OC(F)(F)F)c3)C2=O)n1 (stereo not drawn)
target.system: woolly cupgrass (Eriochloa villosa)
Plant response rating, Cupgrass, Woolly: 0

Would you kindly look at the next entry?
In: Name the recorded Plant response rating, Cupgrass, Woolly for CCCC(C)c1ccn(C2CCN(c3ccc(Cl)c(OC)c3)C2=O)n1 (stereo not drawn) .
Out: 0

---

- Test system: common ragweed (Ambrosia elatior)
- test.protocol: Test C preemergence
- Format: in vivo
- test.context: Rate 62 g/ha; scale 0 to 100, 0 no effect, 100 complete control
Below, each of the compounds is paired with its reported Plant response rating, Ragweed, Common value.
Give only the figure.

Below: 3 compounds and their reported Plant response rating, Ragweed, Common.
compound: CC(C)(C)c1ccn(C2CCN(c3cccc(Br)c3)C2=O)n1 (stereo not shown)
observed.measurement: 0

compound: O=C1C(n2ccc(C3CCCCC3)n2)SCN1c1cccc(OC(F)(F)F)c1 (stereo not shown)
observed.measurement: 20

compound: CC(C)c1ccn(C2SCN(c3cccc(OC(F)(F)F)c3)C2=O)n1 (stereo not shown)
observed.measurement: 30

In: Item CC(C)c1ccn(C2SCN(c3cccc(OC(F)F)c3)C2=O)n1 (stereo not shown) with common ragweed (Ambrosia elatior) - Plant response rating, Ragweed, Common?
Out: 0

---

- Tested on: kochia (Kochia scoparia)
- test.protocol: Test C preemergence
- Format: in vivo
- test.context: Rate 62 g/ha; scale 0 to 100, 0 no effect, 100 complete control
measure: Plant response rating, Kochia
Give only the figure.

compound: O=C1C(n2ccc(C3CCC3)n2)SCN1c1cccc(C(F)(F)F)c1 (centres unmarked)
Plant response rating, Kochia: 50
//
compound: CC(C)(C)c1ccn(C2CCN(c3ccc(Cl)c(Cl)c3)C2=O)n1 (centres unmarked)
Plant response rating, Kochia: 100
//
compound: Cc1ccc(N2CCC(n3ccc(C(C)(C)C)n3)C2=O)cc1OC(F)F (centres unmarked)
Plant response rating, Kochia: 100
//
compound: CC(C)(C)c1ccn(C2CCN(c3ccc(F)c(Br)c3)C2=O)n1 (centres unmarked)
Plant response rating, Kochia: 100
//
compound: CC(C)Oc1cccc(N2CCC(n3ccc(C(C)C)n3)C2=O)c1 (centres unmarked)
Plant response rating, Kochia: 0

In: Name the recorded Plant response rating, Kochia for O=C1C(n2ccc(C3CCC3)n2)OCN1c1cccc(C(F)(F)F)c1 (centres unmarked) .
Out: 0

In: Name the recorded Plant response rating, Kochia for CC(C)Oc1cccc(N2CCC(n3ccc(C(C)(C)C)n3)C2=O)c1 (centres unmarked) .
Out: 80

In: Name the recorded Plant response rating, Kochia for CC1(c2ccn(C3OCN(c4cccc(C(F)(F)F)c4)C3=O)n2)CC1 (centres unmarked) .
Out: 0

In: Name the recorded Plant response rating, Kochia for CCOC(=O)c1cccc(N2CCC(n3ccc(C(C)(C)C)n3)C2=O)c1 (centres unmarked) .
Out: 30

In: Name the recorded Plant response rating, Kochia for CC1(c2ccn(C3SCN(c4cccc(OC(F)(F)F)c4)C3=O)n2)CC1 (centres unmarked) .
Out: 70

In: Name the recorded Plant response rating, Kochia for CCC(CC)c1ccn(C2CCN(c3ccc(C)c(OC)c3)C2=O)n1 (centres unmarked) .
Out: 100

---

- Test system: Nightshade
- test.protocol: Test C preemergence
- Assay type: in vivo
- test.context: Rate 250 g/ha, visual evaluation after 12 to 14 days
Below, each of the compounds is paired with its reported Plant response rating (0 to 100), Nightshade value.
Give only the figure.

compound: CC(C)c1ccn(C2SCN(c3cccc(OC(F)(F)F)c3)C2=O)n1 (centres unmarked)
target.system: Nightshade
observed.measurement: 100
//
compound: O=C1C(n2ccc(C3CC3)n2)OCN1c1cccc(C(F)(F)F)c1 (centres unmarked)
target.system: Nightshade
observed.measurement: 90
//
compound: CCC(CC)c1ccn(C2SCN(c3cccc(C(F)(F)F)c3)C2=O)n1 (centres unmarked)
target.system: Nightshade
observed.measurement: 90
//
compound: O=C1C(n2ccc(C3CCC3)n2)SCN1c1cccc(C(F)(F)F)c1 (centres unmarked)
target.system: Nightshade
observed.measurement: 0

Would you kindly look at the next entry?
In: Name the recorded Plant response rating (0 to 100), Nightshade for O=C1C(n2ccc(C3CCCCC3)n2)SCN1c1cccc(C(F)(F)F)c1 (centres unmarked) .
Out: 30

---

- Tested on: lambsquarters (Chenopodium album)
- test.protocol: Test B postemergence
- Format: in vivo
- test.context: Rate 500 g/ha, scale 0 to 100, 0 is no effect, 100 is complete control, 13 to 15 days
Field 'label' (enum: 1 / 0). Set to 1 when Plant response rating, Lambsquarters is strictly under 50; else 0.

Below are worked cases with known answers.
compound: CC(C)(C)c1ccn(C2CCN(c3cccc(Br)c3)C2=O)n1 (stereo not drawn)
class: 0
//
compound: Cc1c(F)cc(N2CCC(n3ccc(C(C)(C)C)n3)C2=O)cc1Br (stereo not drawn)
class: 1
//
compound: O=C1C(n2cccn2)SCN1c1cccc(C(F)(F)F)c1 (stereo not drawn)
class: 0
//
compound: CC(C)Oc1cccc(N2CCC(n3ccc(C(C)(C)C)n3)C2=O)c1 (stereo not drawn)
class: 1
//
compound: O=C1C(n2ccc(C3CCC3)n2)SCN1c1cccc(OC(F)(F)F)c1 (stereo not drawn)
class: 0
//
compound: O=C1C(n2ccc(C3CCC3)n2)OCN1c1cccc(C(F)(F)F)c1 (stereo not drawn)
class: 0
//
compound: CC(C)(C)c1ccn(C2CCN(c3cccc(C#N)c3)C2=O)n1 (stereo not drawn)
class: 1
//
compound: CC(C)(C)c1ccn(C2CCN(c3ccc4c(c3)CCC4)C2=O)n1 (stereo not drawn)
class: 1

In: Please indicate whether the reported Plant response rating, Lambsquarters of CC(C)(C)c1ccn(C2C(=O)N(c3cccc(C(F)(F)F)c3)C[S+]2[O-])n1 (stereo not drawn) is strictly below 50.
Out: 1

In: Please indicate whether the reported Plant response rating, Lambsquarters of CC(C)c1ccn(C2SCN(c3cccc(C(F)(F)F)c3)C2=O)n1 (stereo not drawn) is strictly below 50.
Out: 0

In: Please indicate whether the reported Plant response rating, Lambsquarters of CCCCC(CCCC)c1ccn(C2OCN(c3cccc(OC(F)(F)F)c3)C2=O)n1 (stereo not drawn) is strictly below 50.
Out: 0

In: Please indicate whether the reported Plant response rating, Lambsquarters of CCC(C)c1ccn(C2CCN(c3cccc(OC(C)C)c3)C2=O)n1 (stereo not drawn) is strictly below 50.
Out: 0

In: Please indicate whether the reported Plant response rating, Lambsquarters of CCC(C)c1ccn(C2SCN(c3cccc(OC(F)(F)F)c3)C2=O)n1 (stereo not drawn) is strictly below 50.
Out: 0

In: Please indicate whether the reported Plant response rating, Lambsquarters of O=C1C(n2ccc(C3CC3)n2)OCN1c1cccc(C(F)(F)F)c1 (stereo not drawn) is strictly below 50.
Out: 0

In: Please indicate whether the reported Plant response rating, Lambsquarters of CCC(C)c1ccn(C2OCN(c3cccc(OC(F)(F)F)c3)C2=O)n1 (stereo not drawn) is strictly below 50.
Out: 0

In: Please indicate whether the reported Plant response rating, Lambsquarters of CCCCC(CCCC)c1ccn(C2SCN(c3cccc(C(F)(F)F)c3)C2=O)n1 (stereo not drawn) is strictly below 50.
Out: 0

---

- Test system: crabgrass (Digitaria spp.)
- test.protocol: Test A preemergence, soil drench
- Assay type: in vivo
- test.context: Rate 2000 g/ha, approx. eleven days
measure: Plant response rating (visual injury vs untreated controls)
Give only the figure.

compound: O=C1C(n2cccn2)CCN1c1cccc(C(F)(F)F)c1 (centres unmarked) [Compound 15]
observed.measurement: 100
//
compound: CC(C)(C)c1nn(C2CCN(c3cccc(C(F)(F)F)c3)C2=O)cc1Cl (centres unmarked) [Compound 14]
observed.measurement: 0

In: Name the recorded Plant response rating (visual injury vs untreated controls) for CC(C)c1ccn(C2OCN(c3cccc(C(F)(F)F)c3)C2=O)n1 (centres unmarked) [Compound 27] .
Out: 90

In: Name the recorded Plant response rating (visual injury vs untreated controls) for O=C1C(n2ccc(C3CC3)n2)OCN1c1cccc(C(F)(F)F)c1 (centres unmarked) [Compound 28] .
Out: 100

In: Name the recorded Plant response rating (visual injury vs untreated controls) for CCC(C)c1nn(C2CCN(c3cccc(C(F)(F)F)c3)C2=O)cc1Cl (centres unmarked) [Compound 13] .
Out: 80

---

- Tested on: soybean (Glycine max)
- test.protocol: Test C preemergence
- Format: in vivo
- test.context: Rate 125 g/ha; scale 0 to 100, 0 no effect, 100 complete control
measure: Plant response rating, Soybean
Give only the figure.

Below: 4 compounds and their reported Plant response rating, Soybean.
compound: CCC(C)Oc1cccc(N2CCC(n3ccc(C(C)(C)C)n3)C2=O)c1 (centres unmarked)
target.system: soybean (Glycine max)
measure: Plant response rating, Soybean
observed.measurement: 0
--
compound: COc1cccc(N2CCC(n3ccc(C(C)(C)C)n3)C2=O)c1 (centres unmarked)
target.system: soybean (Glycine max)
measure: Plant response rating, Soybean
observed.measurement: 20
--
compound: CCCC(C)c1ccn(C2OCN(c3cccc(C(F)(F)F)c3)C2=O)n1 (centres unmarked)
target.system: soybean (Glycine max)
measure: Plant response rating, Soybean
observed.measurement: 0
--
compound: CSc1cccc(N2CCC(n3ccc(C(C)(C)C)n3)C2=O)c1 (centres unmarked)
target.system: soybean (Glycine max)
measure: Plant response rating, Soybean
observed.measurement: 0

In: Name the recorded Plant response rating, Soybean for COc1cc(N2CCC(n3ccc(C(C)C)n3)C2=O)ccc1Br (centres unmarked) .
Out: 80
